# TEST: Stability in mini pig liver microsomes assessed as compound remaining at 10 uM incubated for 30 mins by LC-MS/MS method
# Assay type: ADME, Sus scrofa, Microsome
# CONDITION_LABEL: read-out: Stability
Documented remaining at 0.5 h, 10 µM across a set of compounds
The reply must contain the numeric value and, after it, the unit.

| COMPOUND_STRING | PARAMETER_MEASURED | RESULT |
| --- | --- | --- |
| Cn1cc2c(OCC3CCN(CCc4ccc(C(=O)O)cc4)CC3)nc3ccccc3c2c1 | remaining at 0.5 h, 10 µM | 102% |

We next turn to a different compound, shown below.
Query: Could you tell me which remaining at 0.5 h, 10 µM is on file for CC(C)n1nc(C(=O)NCC2CCN(CCc3ccc(C(=O)O)cc3)CC2)c2ccccc21 ?
Result: 106%

----------
# EXPERIMENTAL_TARGET: 5-hydroxytryptamine receptor 4 (Homo sapiens)
# Sequence (Q13639 whole entry): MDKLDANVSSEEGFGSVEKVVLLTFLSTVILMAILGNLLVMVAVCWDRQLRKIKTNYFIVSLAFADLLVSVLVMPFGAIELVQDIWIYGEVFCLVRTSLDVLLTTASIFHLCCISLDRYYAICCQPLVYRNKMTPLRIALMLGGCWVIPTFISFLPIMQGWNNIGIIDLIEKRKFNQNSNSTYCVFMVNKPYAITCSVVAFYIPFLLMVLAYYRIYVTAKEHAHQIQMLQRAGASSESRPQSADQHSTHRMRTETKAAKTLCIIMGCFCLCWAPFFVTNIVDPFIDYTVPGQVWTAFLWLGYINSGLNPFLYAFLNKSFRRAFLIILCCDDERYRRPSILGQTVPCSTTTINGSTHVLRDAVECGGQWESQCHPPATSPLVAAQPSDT
# TEST: Displacement of [3H](1-(2-(methylsulfonamido)ethyl)piperidin-4-yl)methyl 1-methyl-1H-indole-3-carboxylate from human 5HT4R expressed in HEK293 cells at 10 nM
# Assay type: cell-based
# cutoff 60% applies to inhibition; >= gives T, < gives F

Use the examples below as a reference point.
| MOLECULE | EXPERIMENTAL_TARGET | GROUP_LABEL |
| --- | --- | --- |
| Cn1nc(C(=O)NCC2CCN(CCc3ccc(Cl)cc3)CC2)c2ccccc21 | 5-hydroxytryptamine receptor 4 (Homo sapiens) | T |
| CCCCN1CCC(CNC(=O)c2c3n(c4ccccc24)CCCO3)CC1 | 5-hydroxytryptamine receptor 4 (Homo sapiens) | T |
| Cn1nc(C(=O)NCC2CCNCC2)c2ccccc21 | 5-hydroxytryptamine receptor 4 (Homo sapiens) | F |
| O=C(NCC1CCN(CCc2ccccc2)CC1)c1n[nH]c2ccccc12 | 5-hydroxytryptamine receptor 4 (Homo sapiens) | F |
| CC(=O)n1nc(C(=O)NCC2CCN(CCc3ccccc3)CC2)c2ccccc21 | 5-hydroxytryptamine receptor 4 (Homo sapiens) | T |

Okay, next one:
Query: Quick check: does CCC(C)n1nc(C(=O)NCC2CCN(CCc3ccccc3)CC2)c2ccccc21 (stereo unspecified) have inhibition greater than or equal to 60%?
Result: T

----------
Documented remaining at 0.5 h, 10 µM across a set of compounds
# TEST: Stability in cynomolgus monkey liver microsomes assessed as compound remaining at 10 uM incubated for 30 mins by LC-MS/MS method
# Type: ADME, Macaca fascicularis, Microsome
# CONDITION_LABEL: read-out: Stability
Numeric answer only, unit % assumed.

| COMPOUND_STRING | PARAMETER_MEASURED | QUANTITATIVE_RESULT |
| --- | --- | --- |
| Cn1cc2c(OCC3CCN(CCc4ccc(C(=O)O)cc4)CC3)nc3ccccc3c2c1 | remaining at 0.5 h, 10 µM | 80 |

We next turn to a different compound, shown below.
Query: Could you tell me which remaining at 0.5 h, 10 µM is on file for CC(C)n1nc(C(=O)NCC2CCN(CCc3ccc(C(=O)O)cc3)CC2)c2ccccc21 ?
Result: 93

----------
# TEST: Stability in cynomolgus monkey liver microsomes assessed as compound remaining at 1 uM incubated for 60 mins by LC-MS/MS method
# Format: ADME, Macaca fascicularis, Microsome
# CONDITION_LABEL: read-out: Stability
Documented remaining at 1 h, 1 µM across a set of compounds
Numeric answer only, unit % assumed.

| COMPOUND_STRING | remaining at 1 h, 1 µM / % |
| --- | --- |
| Cn1cc2c(OCC3CCN(CCc4ccc(C(=O)O)cc4)CC3)nc3ccccc3c2c1 | 0.4 |

We next turn to a different compound, shown below.
Query: Could you tell me which remaining at 1 h, 1 µM is on file for CC(C)n1nc(C(=O)NCC2CCN(CCc3ccc(C(=O)O)cc3)CC2)c2ccccc21 ?
Result: 86
